// data source = PubChem BioAssay AID624129

- tested on: C-X-C chemokine receptor type 6 (Homo sapiens)
- experimental protocol: potency against CXCR6 with APJ panel – cell-based, beta-arrestin, DiscoveRx, uHTS hits, dose response (AID 624129)
- test settings: CXCR6 beta-arrestin (DiscoveRx) antagonist cell assay, CXCR6, run 2, dose range 2
Listed here: items and their measured IC50.
endpoint name: IC50 (µM)

• COC(=O)c1ccc2c(c1)C(C)(C)C(/C=C/c1ccccc1O)=[N+]2C = 9.88
• COc1ccc(/C=C2/CCC(CN3CCOCC3)C2=O)cc1 (stereo not given) = 15.2
• COc1cc(/C=C/[N+](=O)[O-])ccc1OC(=O)c1cccnc1 = 31.9
• O=[N+]([O-])c1ccc(N/N=C/c2sc(N3CCOCC3)nc2-c2ccccc2)c(S(=O)(=O)Nc2ccc(Cl)cc2)c1 = 37.3
• C=C1C(=O)[C@]23C[C@H]1CCC2[C@@]1(C)C(C[C@@H]3O)[C@](C)(C(=O)OC)CC[C@@H]1O (stereo not given in full) = 11.4
